Below: a set of entries, each annotated with reported IC50.
test-system: angiotensin II AT1 receptor
method: Assay A: Angiotensin II binding activity, rat uterine membrane preparation, 125I-AII displacement
All answers are understood in nM, so give the number only.

Past entries and their recorded results:
Qu. What measured IC50 goes with `CCCCCc1cn(CCCC)c(=O)n1Cc1ccc(-c2ccccc2-c2nnn[nH]2)nc1` ?
Ans. 17

Qu. What does the data say about its IC50? Entry: `CCCCc1nc(CCCN)nn1Cc1ccc(-c2ccccc2-c2nnn[nH]2)cc1`
Ans. 3.6

Qu. What does the record list as IC50 for `CCCn1nc(C(F)(F)CCC)nc1Cc1ccc(-c2ccccc2-c2nnn[nH]2)nc1` ?
Ans. 20

Continuing:
Qu. Returns the measured IC50 for the input compound. Input: `CCCCc1cn(C2CCCCC2)c(=O)n1Cc1ccc(-c2ccccc2-c2nnn[nH]2)nc1`
Ans. 5.4

Qu. Name the recorded IC50 for `CCCCc1nc(C23CC4CC(CC(C4)C2)C3)n(Cc2ccc(-c3ccccc3-c3nnn[nH]3)cc2)n1` .
Ans. 12

* * *

System: rabbit aortic rings
method: Assay B: In vitro vascular smooth muscle response for AII (antagonist activity, pA2)
Format: cell-based
setup-conditions: Oryctolagus cuniculus, two values in a cell = two determinations
Each item that follows carries a reported Kb.
Numeric answer only, unit nM assumed.

Qu. What value of measured Kb is listed for CCCCc1nn(CCCC)c(=O)n1Cc1ccc(-c2ccccc2C(=O)O)cc1 [Compound 89] ?
Ans. 12.6

Qu. Form field: reported Kb of CCCCc1nn(C(CC(=O)OCC)C(=O)c2ccccc2)c(=O)n1Cc1ccc(-c2ccccc2-c2nn[nH]n2)cc1 (stereo not shown) [Compound 112]
Ans. 6310

Qu. Would you kindly share the measured Kb for CCCCc1nn(C/C=C/c2ccccc2)c(=O)n1Cc1ccc(-c2ccccc2-c2nn[nH]n2)cc1 [Compound 116] ?
Ans. 316

New cases:
Qu. Please look up its Kb: CCCCc1nn(CC2CC2)c(=O)n1Cc1ccc(-c2ccccc2-c2nn[nH]n2)cc1 [Compound 115]
Ans. 6.31

* * *

test-system: angiotensin II AT1 receptor
method: Assay A: Angiotensin II binding activity, rat uterine membrane preparation, 125I-AII displacement
assay-readout: IC50 (µM)
Unit µM implied. Number only.

Here are 5 compounds together with their reported answers.
Qu. What measured IC50 goes with `CCCCc1nc(C(F)(F)Cc2ccccc2)nn1Cc1ccc(-c2ccccc2-c2nnn[nH]2)cc1` ?
Ans. 0.026

Qu. Param item = `CCCCn1nc(C(F)F)nc1Cc1ccc(-c2ccccc2-c2nnn[nH]2)nc1` ; retrieve measured IC50.
Ans. 0.18

Qu. Given `CCCCc1cn(CCCC)c(=O)n1Cc1ccc(-c2ccncc2-c2nnn[nH]2)cc1` , state its recorded IC50.
Ans. 0.0036

Qu. If you can, please state the reported IC50 value of `CCCCn1nc(C(C)(OC)OC)nc1Cc1ccc(-c2ccccc2-c2nnn[nH]2)nc1` .
Ans. 0.011

Qu. Quick one: IC50 of `CCCCCn1nc(CCCC)nc1Cc1ccc(-c2ccccc2-c2nnn[nH]2)nc1` ?
Ans. 0.16

---
Qu. Which measured IC50 value corresponds to `CCCCc1nn(Cc2ccc3ccccc3c2)c(=O)n1Cc1ccc(-c2ccccc2-c2nn[nH]n2)cc1` ?
Ans. 0.59

Qu. What IC50 value was documented for this compound, `CCCCc1nc(C(OC)OC)nn1Cc1ccc(-c2ccccc2-c2nnn[nH]2)cc1` ?
Ans. 0.041

Qu. Need IC50 of `CCCCc1nc(CCCC)n(Cc2ccc(-n3ccc(-c4nnn[nH]4)c3)cc2)n1` , thanks.
Ans. 0.013

* * *

Test system: rabbit aortic rings
method: Assay B: In vitro vascular smooth muscle response for AII (antagonist activity, pA2)
Format: cell-based
setup-conditions: Oryctolagus cuniculus, two values in a cell = two determinations
Entries and their Kb
Express your answer in nM, writing the number without its unit.

Qu. Return reported Kb; argument: `CCCCc1nc(CNC(=O)OC(C)(C)C)n(Cc2ccc(-c3ccccc3-c3nnn[nH]3)cc2)n1`
Ans. 3.89

Qu. Look up Kb for this compound: `CCCCCn1nc(CCCC)n(Cc2ccc(-c3ccccc3-c3nn[nH]n3)cc2)c1=O`
Ans. 15.8

Qu. Need Kb of `CCCCn1nc(C(F)F)nc1Cc1ccc(-c2ccccc2-c2nnn[nH]2)nc1` , thanks.
Ans. 51.3

Qu. Tell me the measured Kb of `CCCCCn1nc(CCCC)nc1Cc1ccc(-c2ccccc2-c2nnn[nH]2)nc1` , please.
Ans. 26.9

Qu. Recorded Kb of `CCCCn1nc(C(F)(F)CC)nc1Cc1ccc(-c2ccccc2-c2nnn[nH]2)nc1` , please.
Ans. 214

Others:
Qu. I am curious: what Kb value has been reported for `CCCCc1nn(CC(=O)C23CC4CC(CC(C4)C2)C3)c(=O)n1Cc1ccc(-c2ccccc2-c2nn[nH]n2)cc1` ?
Ans. 2.51

Qu. # get_value(readout='Kb', item= `CCCCc1nc(-c2ccccc2C)n(Cc2ccc(-c3ccccc3-c3nnn[nH]3)nc2)n1` )
Ans. 2.95

Qu. Would you mind telling me what Kb value was observed for `CCCCc1nc(Cl)n(Cc2ccc(-c3ccccc3-c3nnn[nH]3)cc2)n1` ?
Ans. 1290

Qu. Query: Kb; subject: `CCCCc1nc(C23CC4CC(CC(C4)C2)C3)nn1Cc1ccc(-c2ccccc2-c2nnn[nH]2)cc1`
Ans. 1320

* * *

test-system: angiotensin II AT1 receptor
method: Assay A: Angiotensin II binding activity, rat uterine membrane preparation, 125I-AII displacement
// values below are reported pIC50
FYI, pIC50 means -log10 of a concentration in mol per litre.

Qu. I would be grateful if you could share the reported pIC50 for `CCCCc1cn(-c2c(OC)cccc2OC)c(=O)n1Cc1ccc(-c2ccccc2-c2nnn[nH]2)nc1` .
Ans. 8.16

* * *

Tested on: rabbit aortic rings
method: Assay B: In vitro vascular smooth muscle response for AII (antagonist activity, pA2)
Assay type: cell-based
setup-conditions: Oryctolagus cuniculus, two values in a cell = two determinations
Let's look at some compounds and their measured Kb.
// note: answer is a bare numeric in µM

Recorded results for 3 compounds are shown here.
Qu. What value of measured Kb is listed for `CCCCc1nc(CCCC)n(Cc2ccc(-c3cnccc3-c3nnn[nH]3)cc2)n1` ?
Ans. 0.0245

Qu. Report Kb for `CCCn1cc(CC(C)C)n(Cc2ccc(-c3ccccc3-c3nnn[nH]3)nc2)c1=O` please.
Ans. 0.00174

Qu. Query (compound): `CCCCn1nc(C=O)nc1Cc1ccc(-c2ccccc2-c2nnn[nH]2)nc1` ; field requested: Kb
Ans. 0.0135

Further cases:
Qu. Request the reported Kb associated with `CCCCc1cn(CCC(C)C)c(=O)n1Cc1ccc(-c2ccccc2-c2nnn[nH]2)nc1`
Ans. 0.000389

Qu. Requested read-out: Kb. Entry: `CCCCc1nc(CCc2ccccc2)n(Cc2ccc(-c3ccccc3-c3nnn[nH]3)cc2)n1`
Ans. 1.2

Qu. I am curious: what Kb value has been reported for `CCCc1cn(CCC)c(=O)n1Cc1ccc(-c2ccccc2-c2nnn[nH]2)cc1` ?
Ans. 0.794

Qu. Query: Kb; subject: `CCCCc1c(C)n(CCCC)c(=O)n1Cc1ccc(-c2ccccc2-c2nnn[nH]2)cc1`
Ans. 1.58

Qu. # input compound: `CCCCc1cn(-c2c(Cl)cccc2Cl)c(=O)n1Cc1ccc(-c2ccccc2-c2nnn[nH]2)nc1` ; wanted: its Kb
Ans. 0.00257

* * *

System: pressor response to AII
method: Assay C: In vivo intragastric pressor assay response for AII antagonists
Design: species or system Sprague-Dawley rats
setup-conditions: Rattus norvegicus, intraduodenal; in vivo pressor response; 100 mg/kg intraduodenally
assay-readout: inhibition in vivo at 100 mg/kg
A bare number is not enough; add the unit after it.

Look over these answered cases.
Qu. Quick one: inhibition in vivo at 100 mg/kg for CCCCc1nn(CC(OCc2ccccc2)c2ccccc2)c(=O)n1Cc1ccc(-c2ccccc2-c2nn[nH]n2)cc1 (stereo not shown) [Compound 108] ?
Ans. 45%

Qu. Quick one: inhibition in vivo at 100 mg/kg of C[C@]12CCC(=O)C=C1C1CC1[C@H]1[C@@H]3CC[C@@]4(CCC(=O)O4)[C@@]3(C)CC3O[C@]312 (stereo partly shown) [Compound 9] ?
Ans. 100%

Qu. // lookup inhibition in vivo at 100 mg/kg for C[C@]12C=CC(=O)C=C1[C@@H]1CC1[C@H]1[C@@H]3CC[C@@]4(CCC(=O)O4)[C@@]3(C)CC3O[C@]312 (stereo partly shown) [Compound 6]
Ans. 90%

Query compound follows.
Qu. inhibition in vivo at 100 mg/kg lookup needed for CCCCc1nc(Cl)n(Cc2ccc(-c3ccccc3-c3nnn[nH]3)cc2)n1 [Compound 20] , thanks.
Ans. 10%

* * *

Reported values of Kb for individual entries
Test system: rabbit aortic rings
method: Assay B: In vitro vascular smooth muscle response for AII (antagonist activity, pA2)
Assay type: cell-based
setup-conditions: Oryctolagus cuniculus, two values in a cell = two determinations
Express it in nM; write the number only.

Qu. Requested read-out: Kb. Entry: `CCCCc1cn(C2CCCCC2)c(=O)n1Cc1ccc(-c2ccccc2-c2nnn[nH]2)nc1`
Ans. 1.58

Qu. Tell me the measured Kb of `CCCCc1nc(-c2ccccc2Cl)n(Cc2ccc(-c3ccccc3-c3nnn[nH]3)nc2)n1` , please.
Ans. 8.71

Qu. Recorded Kb for `CCCCc1ncn(Cc2ccc(-c3ccccc3-c3nnn[nH]3)cc2)n1` , please?
Ans. 14.1

Qu. Item under review: `CCCCc1nc(CC23CC4CC(CC(C4)C2)C3)n(Cc2ccc(-c3ccccc3-c3nnn[nH]3)cc2)n1` . Reported Kb?
Ans. 776

Qu. Could you tell me which Kb is on file for `CCCCc1nc2c(CCC)nnc(O)c2n1Cc1ccc(-c2ccccc2-c2nnn[nH]2)cc1` ?
Ans. 0.38

Qu. Which Kb is reported for this molecule? `CCCCCn1cc(CCCC)n(Cc2ccc(-c3ccccc3-c3nnn[nH]3)nc2)c1=O`
Ans. 4.37

Qu. # Kb lookup, item `CCCCc1nc(C(F)F)nn1Cc1ccc(-c2ccccc2-c2nnn[nH]2)cc1`
Ans. 355

***
Qu. Item under review: `CCCCc1nc(CCCC)n(Cc2ccc(-n3c(Cl)cc(Cl)c3-c3nnn[nH]3)cc2)n1` . Reported Kb?
Ans. 6.46
